target: Amyloid-beta precursor protein (Homo sapiens) (UniProt P05067); assay: Inhibition of amyloid beta (1 to 42) (unknown origin) self-aggregation at 40 uM incubated for 48 hrs by thioflavin-T fluorescence method
Sequence (P05067 whole entry): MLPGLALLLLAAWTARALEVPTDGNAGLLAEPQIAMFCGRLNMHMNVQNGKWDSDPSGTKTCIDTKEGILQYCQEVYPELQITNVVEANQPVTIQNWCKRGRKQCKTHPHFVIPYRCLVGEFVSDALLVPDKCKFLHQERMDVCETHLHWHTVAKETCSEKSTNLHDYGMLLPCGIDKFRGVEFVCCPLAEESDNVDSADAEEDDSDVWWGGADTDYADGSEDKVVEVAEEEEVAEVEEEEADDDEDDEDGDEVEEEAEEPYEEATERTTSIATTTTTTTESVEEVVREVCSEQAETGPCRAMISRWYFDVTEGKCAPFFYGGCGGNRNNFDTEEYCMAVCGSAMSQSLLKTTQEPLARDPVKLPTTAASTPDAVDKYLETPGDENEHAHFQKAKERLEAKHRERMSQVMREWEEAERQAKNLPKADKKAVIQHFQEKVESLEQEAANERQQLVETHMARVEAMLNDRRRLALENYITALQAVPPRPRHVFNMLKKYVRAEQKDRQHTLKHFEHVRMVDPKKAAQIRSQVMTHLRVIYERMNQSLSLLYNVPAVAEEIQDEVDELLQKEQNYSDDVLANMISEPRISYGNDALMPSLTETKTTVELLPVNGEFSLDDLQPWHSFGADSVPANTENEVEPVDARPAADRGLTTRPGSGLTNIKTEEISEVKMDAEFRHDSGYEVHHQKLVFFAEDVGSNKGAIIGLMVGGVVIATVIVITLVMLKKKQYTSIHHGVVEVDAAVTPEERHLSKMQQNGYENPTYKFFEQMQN
The source made the active and inactive calls. The rule behind the calls is not given here.
recordedMetric: inhibition

CC1(C)C=Cc2c(ccc3c2OC(c2ccc(O)cc2)CC3=O)O1 (stereo not given)    63.5%
COc1cc(OC)c(-c2coc3c4c(ccc3c2=O)OC(C)(C)C=C4)cc1OC    inactive
COc1ccc(-c2coc3c4c(ccc3c2=O)OC(C)(C)C=C4)cc1OC    inactive
CC1(C)C=Cc2c(ccc(C(=O)/C=C/c3ccc(O)cc3)c2O)O1    65.7%

FYI, the data here is from ChEMBL document CHEMBL4316628.
